Hey, just so you know, these numbers are from ChEMBL document CHEMBL3085750.

# protocol: Drug level in Sprague-Dawley rat CSF
# Format: ADME, Cerebrospinal fluid
# test conditions: in vivo, read-out: Ct
experimental endpoint: concentration (nM)
One number for each entry, in nM.

Report concentration for Cc1cc(-c2ccc(NC(=O)[C@H](CC(C)C)c3cccc(-c4ccc(N5CCOCC5)cc4)c3)cc2)ccn1 please.
2

====

# protocol: Half life in cynomolgus monkey at 2 mg/kg, iv
# Assay type: ADME, organism-based, Macaca fascicularis
# Parameters: dose 2 mg/kg, route intravenous
# test conditions: in vivo
experimental endpoint: half-life (h)
Answers are plain numbers, in h.

Report half-life for Cc1cc(-c2ccc(NC(=O)[C@H](C)c3cc(C(F)(F)F)cc(C(F)(F)F)c3)cc2)ccn1 please.
15.9

====

# protocol: Clearance in rat at 2 mg/kg, iv
# Format: ADME, organism-based
# Design: dose 2 mg/kg, route intravenous
# test conditions: in vivo
experimental endpoint: clearance
Give the value; after it, write the unit.

Report clearance for Cc1cc(-c2ccc(NC(=O)[C@H](C)c3cc(C(F)(F)F)cc(C(F)(F)F)c3)cc2)ccn1 please.
9.67 mL/min/kg

====

# system name: Gamma-secretase
# protocol: Modulation of gamma-secretase in HEK293 cells expressing guinea pig Swedish mutant SFV-APP695sw assessed as inhibition of amyloid beta-42 production after 16 to 18 hrs by HTRF assay
# Type: cell-based, Homo sapiens
Record form. Attribute: pIC50. Fill in for each entry.
One number for each entry, as −log10 of the molar value.

Below is a list of compounds. For each, state its recorded pIC50.
1. Cc1cc(-c2ccc(NC(=O)C(C)c3cccc(N4CCOCC4)c3)cc2)ccn1 (centres undefined)
2. Cc1cc(-c2ccc(NC(=O)Cc3cc(C(F)(F)F)cc(C(F)(F)F)c3)cc2)ccn1

1. 5.32
2. 6.34

Below is a list of compounds. For each, state its recorded pIC50.
1. Cc1cc(-c2ccc(NS(=O)(=O)c3cc(C(F)(F)F)cc(C(F)(F)F)c3)cc2)ccn1
2. Cc1cccc(C(CC(C)C)C(=O)Nc2ccc(-c3ccnc(C)c3)cc2)c1 (single isomer, unassigned; isomer 1)
3. Cc1cc(-c2ccc(NC(=O)C(C)c3cccc(-c4ccc(N5CCOCC5)nc4)c3)cc2)ccn1 (centres undefined)
4. Cc1cc(-c2ccc(NC(=O)C(C)c3cccc(-c4cccc(C#N)c4)c3)cc2)ccn1 (centres undefined)
5. COc1ccc(-c2cccc(C(C)C(=O)Nc3ccc(-c4ccnc(C)c4)cc3)c2)cc1 (centres undefined)
6. CCC(C(=O)Nc1ccc(-c2ccnc(C)c2)cc1)c1cccc(C)c1 (centres undefined)

1: 6.55; 2: 6.74; 3: 6.82; 4: 6.66; 5: 6.82; 6: 5.98

====

# protocol: Metabolic stability in human liver microsomes at 1 uM after 30 mins
# Format: ADME
# test conditions: read-out: Stability
Mark Met only when microsomal CLint at 1 µM stays strictly below 90 µL/min/mg. Values equal to the cut-off are Not met.

Illustrative cases are given below, each with its answer.
Cc1nccn1-c1ccc(NS(=O)(=O)c2cc(Cl)cc(Cl)c2)cc1 : Met
O=S(=O)(Nc1ccc(-c2ccncc2)cc1)c1cc(Cl)cc(Cl)c1 : Met
O=S(=O)(Nc1ccc(-n2ccnc2)cc1)c1cc(Cl)cc(Cl)c1 : Met
O=S(=O)(Nc1ccc(-c2cnco2)cc1)c1cc(Cl)cc(Cl)c1 : Met
Cc1cc(-c2ccc(NC(=O)Cc3cc(C(F)(F)F)cc(C(F)(F)F)c3)cc2)ccn1 : Met
C=Cc1cc(-c2ccc(NS(=O)(=O)c3cc(C(F)(F)F)cc(C(F)(F)F)c3)cc2)ccn1 : Not met

Dear reviewer, please state whether O=S(=O)(Nc1ccc(-c2ccco2)cc1)c1cc(Cl)cc(Cl)c1 has microsomal CLint at 1 µM strictly beneath 90 µL/min/mg.
Not met

Thanks! And O=S(=O)(Nc1ccc(-c2cncnc2)cc1)c1cc(Cl)cc(Cl)c1 ?
Met

Thanks! And Cc1cc(-c2ccc(NC(=O)[C@@H](C)c3cc(C(F)(F)F)cc(C(F)(F)F)c3)cc2)ccn1 ?
Met

====

# protocol: Efflux ratio of apparent permeability in pig LLC-PK1 cells
# Format: ADME, cell-based, Sus scrofa
experimental endpoint: efflux ratio

Report efflux ratio for Cc1cc(-c2ccc(NC(=O)[C@H](C)c3cc(C(F)(F)F)cc(C(F)(F)F)c3)cc2)ccn1 please.
1.2

====

# system name: Gamma-secretase
# protocol: Modulation of gamma-secretase in HEK293 cells expressing guinea pig Swedish mutant SFV-APP695sw assessed as inhibition of amyloid beta-42 production after 16 to 18 hrs by HTRF assay
# Format: cell-based, Homo sapiens
pIC50: −log10 of the molar value.
Give true when the value for pIC50 is at least 6. Give false when it is less.

Cc1cccc(C(CCCO)C(=O)Nc2ccc(-c3ccnc(C)c3)cc2)c1 (stereo not given) : false
Cc1cc(-c2cccc(NC(=O)Cc3cc(C(F)(F)F)cc(C(F)(F)F)c3)c2)ccn1 : false
O=S(=O)(Nc1ccc(-c2cnco2)cc1)c1cc(Cl)cc(Cl)c1 : false

Determine whether measured pIC50 meets or exceeds 6 for O=S(=O)(Nc1ccc(-c2nnco2)cc1)c1cc(Cl)cc(Cl)c1
false

Thanks! And O=S(=O)(Nc1ccc(-c2cc[nH]n2)cc1)c1cc(Cl)cc(Cl)c1 ?
false

Thanks! And Cc1cc(-c2ccc(NC(=O)C(C)c3cccc(-c4ccc(C(=O)O)cc4)c3)cc2)ccn1 (stereo not given) ?
false

Thanks! And Cc1cc(-c2ccc(NC(=O)C(C)c3cccc(-c4ccccn4)c3)cc2)ccn1 (stereo not given) ?
false

Thanks! And O=S(=O)(Nc1ccc(-c2cncnc2)cc1)c1cc(Cl)cc(Cl)c1 ?
false

Thanks! And CCCC(C(=O)Nc1ccc(-c2ccnc(C)c2)cc1)c1cccc(C)c1 (stereo not given) ?
true

Thanks! And Cc1cc(-c2ccc(NC(=O)Cc3cc(C(F)(F)F)cc(C(F)(F)F)c3)nc2)ccn1 ?
false

Thanks! And COc1cc(-c2ccnc(C)c2)ccc1NS(=O)(=O)c1cc(C(F)(F)F)cc(C(F)(F)F)c1 ?
false

Thanks! And O=S(=O)(Nc1ccc(-c2ccncc2)cc1)c1cc(Cl)cc(Cl)c1 ?
false

Thanks! And CCCCC(C(=O)Nc1ccc(-c2ccnc(C)c2)cc1)c1cccc(C)c1 (stereo not given) ?
true

Thanks! And CC(=O)c1ccc(-c2cccc(C(C)C(=O)Nc3ccc(-c4ccnc(C)c4)cc3)c2)cc1 (stereo not given) ?
true

Thanks! And COc1cc(C(=O)NCCC(c2ccccc2)c2ccccc2)ccc1-n1cnc(C)c1 ?
true

Thanks! And Cc1cccc(C(C)C(=O)Nc2ccc(-c3ccnc(C)c3)cc2)c1 (stereo not given) ?
true

====

# system name: Cytochrome P450 3A4 (Homo sapiens, UniProt P08684)
# Sequence (P08684 whole entry): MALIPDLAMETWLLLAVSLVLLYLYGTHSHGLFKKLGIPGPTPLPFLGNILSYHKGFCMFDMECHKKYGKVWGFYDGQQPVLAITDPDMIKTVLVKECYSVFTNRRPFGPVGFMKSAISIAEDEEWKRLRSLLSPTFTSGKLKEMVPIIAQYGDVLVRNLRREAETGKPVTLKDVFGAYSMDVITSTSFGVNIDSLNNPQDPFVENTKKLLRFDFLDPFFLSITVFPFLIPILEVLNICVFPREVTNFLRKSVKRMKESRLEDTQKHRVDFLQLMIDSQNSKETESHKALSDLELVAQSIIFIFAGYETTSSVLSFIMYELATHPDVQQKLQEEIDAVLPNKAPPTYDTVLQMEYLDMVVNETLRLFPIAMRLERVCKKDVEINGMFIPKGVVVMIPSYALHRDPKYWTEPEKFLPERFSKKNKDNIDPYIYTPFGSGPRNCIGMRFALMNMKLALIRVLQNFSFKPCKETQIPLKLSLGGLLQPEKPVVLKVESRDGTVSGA
Record form. Attribute: IC50. Fill in for each entry.
Numbers only, in µM.

O=S(=O)(Nc1ccc(-c2cncnc2)cc1)c1cc(Cl)cc(Cl)c1 : 3.5

Read the next record carefully.
Report IC50 for O=S(=O)(Nc1ccc(-c2ccncc2)cc1)c1cc(Cl)cc(Cl)c1 please.
0.6

====

# protocol: Apparent permeability in pig LLC-PK1 cells
# Type: ADME, cell-based, Sus scrofa
experimental endpoint: Papp

Cc1cc(-c2ccc(NC(=O)[C@H](C)c3cc(C(F)(F)F)cc(C(F)(F)F)c3)cc2)ccn1 : 7.8 ×10⁻⁶ cm/s

Read the next record carefully.
Report Papp for Cc1cc(-c2ccc(NC(=O)[C@H](CC(C)C)c3cccc(-c4ccc(N5CCOCC5)cc4)c3)cc2)ccn1 please.
< 1 ×10⁻⁶ cm/s

====

# system name: Gamma-secretase
# protocol: Modulation of gamma-secretase in HEK293 cells expressing guinea pig Swedish mutant SFV-APP695sw assessed as inhibition of amyloid beta-42 production after 16 to 18 hrs by HTRF assay
# Format: cell-based, Homo sapiens
experimental endpoint: pIC50
Answers are plain numbers, as −log10 of the molar value.

Below is a list of compounds. For each, state its recorded pIC50.
1. Cc1cc(-c2ccc(NC(=O)C(C)c3cccc(-c4ccc(N(C)C)nc4)c3)cc2)ccn1 (centres undefined)
2. CCc1cc(-c2ccc(NS(=O)(=O)c3cc(C(F)(F)F)cc(C(F)(F)F)c3)cc2)ccn1
3. Cc1cc(-c2ccc(NC(=O)[C@H](CC(C)C)c3cccc(-c4ccc(N5CCOCC5)cc4)c3)cc2)ccn1
4. Cc1cccc(C(CC(C)C)C(=O)Nc2ccc(-c3ccnc(C)c3)cc2)c1 (single isomer, unassigned; isomer 2)

1: 6.77; 2: 6.68; 3: 7.70; 4: 5.86

Report pIC50 for Cc1cc(-c2ccc(NC(=O)C(CC(C)C)c3cc(C(F)(F)F)cc(C(F)(F)F)c3)cc2)ccn1 (centres undefined) please.
6.09

====

Record form. Attribute: IC50. Fill in for each entry.
# system name: UniProtKB P10635
# Sequence (P10635 whole entry): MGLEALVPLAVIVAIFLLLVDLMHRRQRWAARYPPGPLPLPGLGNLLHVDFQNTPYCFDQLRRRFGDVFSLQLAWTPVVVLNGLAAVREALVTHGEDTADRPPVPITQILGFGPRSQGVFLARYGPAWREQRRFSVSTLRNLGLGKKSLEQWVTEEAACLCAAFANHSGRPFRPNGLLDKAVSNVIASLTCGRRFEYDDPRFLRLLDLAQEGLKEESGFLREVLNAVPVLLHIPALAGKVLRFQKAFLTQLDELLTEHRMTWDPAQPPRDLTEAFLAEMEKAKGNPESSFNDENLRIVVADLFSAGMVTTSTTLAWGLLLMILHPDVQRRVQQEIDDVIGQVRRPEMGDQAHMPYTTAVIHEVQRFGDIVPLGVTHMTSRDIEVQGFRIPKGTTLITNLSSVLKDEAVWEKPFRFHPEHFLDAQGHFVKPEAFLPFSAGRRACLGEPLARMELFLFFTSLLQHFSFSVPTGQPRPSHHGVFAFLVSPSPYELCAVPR
Numbers only, in µM.

Sample records with IC50:
O=S(=O)(Nc1ccc(-n2ccnc2)cc1)c1cc(Cl)cc(Cl)c1 : 0.1
O=S(=O)(Nc1ccc(-c2nnco2)cc1)c1cc(Cl)cc(Cl)c1 : 15.1
C=Cc1cc(-c2ccc(NS(=O)(=O)c3cc(C(F)(F)F)cc(C(F)(F)F)c3)cc2)ccn1 : 0.7
CCCc1cc(-c2ccc(NS(=O)(=O)c3cc(C(F)(F)F)cc(C(F)(F)F)c3)cc2)ccn1 : 1.8
Cc1cc(-c2ccc(NC(=O)[C@@H](C)c3cc(C(F)(F)F)cc(C(F)(F)F)c3)cc2)ccn1 : 2.6

Below is a list of compounds. For each, state its recorded IC50.
1. O=S(=O)(Nc1ccc(-c2cncnc2)cc1)c1cc(Cl)cc(Cl)c1
2. CCc1cc(-c2ccc(NS(=O)(=O)c3cc(C(F)(F)F)cc(C(F)(F)F)c3)cc2)ccn1
3. Cc1cc(-c2ccc(NC(=O)Cc3cc(C(F)(F)F)cc(C(F)(F)F)c3)cc2)ccn1

1. 7.2
2. 0.7
3. 13
